Molecular target: Tyrosyl-tRNA synthetase, putative (Trypanosoma cruzi (strain CL Brener))
Sequence (whole entry): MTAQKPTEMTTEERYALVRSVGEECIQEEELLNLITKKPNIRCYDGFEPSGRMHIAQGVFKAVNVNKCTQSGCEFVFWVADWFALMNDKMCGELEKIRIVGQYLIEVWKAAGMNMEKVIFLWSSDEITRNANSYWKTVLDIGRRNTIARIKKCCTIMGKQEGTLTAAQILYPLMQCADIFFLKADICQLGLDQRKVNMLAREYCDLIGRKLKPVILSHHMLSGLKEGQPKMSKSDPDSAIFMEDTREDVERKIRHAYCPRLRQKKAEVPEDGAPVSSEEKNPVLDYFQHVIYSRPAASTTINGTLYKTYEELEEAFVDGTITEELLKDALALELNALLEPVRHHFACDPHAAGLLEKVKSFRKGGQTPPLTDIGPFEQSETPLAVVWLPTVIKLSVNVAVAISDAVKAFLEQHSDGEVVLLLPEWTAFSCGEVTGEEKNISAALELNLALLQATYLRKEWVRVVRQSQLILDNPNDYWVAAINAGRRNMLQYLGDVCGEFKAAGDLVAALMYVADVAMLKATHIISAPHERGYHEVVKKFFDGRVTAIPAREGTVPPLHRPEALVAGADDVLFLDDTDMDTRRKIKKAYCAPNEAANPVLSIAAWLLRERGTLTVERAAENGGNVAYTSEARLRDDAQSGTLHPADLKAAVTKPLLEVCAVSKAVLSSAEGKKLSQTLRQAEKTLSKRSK
Experiment: Trypanosoma cruzi tyrosyl tRNA synthetase (TcYRS) SOP
Assay type: functional
Set-up: scale not given: direction of the effect not stated beside the values
Conditions: 30 µM
experimental endpoint: Percent Effect (%)

>>> df
                                   compound  experimental_endpoint  numeric_readout
0  c1cncc(OCC2CN(Cc3ccco3)Cc3nccn3C2)c1 (stereo unspecified)         Percent Effect             23.5
1  Nc1cc(N2CCCC2c2cnccn2)ncn1 (stereo unspecified)         Percent Effect             14.3
2         Cc1cnn(C2CN(CC(=O)Nc3cccnc3)C2)c1         Percent Effect              3.7
3  c1ncc(Nc2nccc(C3CCCCN3CC3CCCCC3)n2)cn1 (stereo unspecified)         Percent Effect             11.5
4  Cc1cnn(CC2CCCN2C(=O)c2cc3ccccc3[nH]c2=O)c1 (stereo unspecified)         Percent Effect             7.06
5  Cc1nn(C)c(C)c1CC(=O)N1CCCC(n2cccn2)C1 (stereo unspecified)         Percent Effect              3.7

====

target: Ubiquitin-activating enzyme e1, putative (Leishmania donovani (strain BPK282A1)); assay: Leishmania donovani Ubiquitin Activating Enzyme (LdE1); format: functional; parameters: scale not given: direction of the effect not stated beside the values; details: 30 µM
Results with a measured potency or affinity are listed apart.
experimental endpoint: Percent Effect (%)

>>> print(df.to_string())
                                    compound  numeric_readout
 0      Cc1ccc2c(c1)C1(CCNCC1)CN2C(=O)CN(C)C             10.8
 1  COc1ccc(C(=O)NS(=O)(=O)c2ccc(C#N)cc2C(F)(F)F)cc1            -10.8
 2  O=C(c1ccc2[nH]ccc2c1)N1CCn2cnc(COCC3CC3)c2C1             7.79
 3  c1nc(N2CCCCC2Cn2cncn2)c2ccsc2n1 (centres undefined)               16
 4             Cc1ccc(OCC(=O)NCc2ccccc2F)nc1             19.2
 5    CCN1C[C@H]2CCN(C(C)=O)CC[C@H]2S1(=O)=O             9.33
 6  CC(NC(=O)NCC1(O)CCC1)c1ccc(OCC2CC2)c(F)c1 (centres undefined)             10.5
 7  CNS(=O)(=O)c1ccc(CNC(=O)NCC2CCCO2)cc1 (centres undefined)               13
 8  COc1cc(N2C[C@@H]3COC[C@]3(COc3cccnc3)C2)ncn1             16.2
 9    O=C(Cn1cc(C(=O)O)ccc1=O)Nc1ccc(F)cc1Cl             14.7
10  Cn1cc(C2CCCN2CCCc2nc(-c3cccs3)no2)cn1 (centres undefined)            -32.4
11           CCN(C(=O)CCCOc1ccccc1F)c1ccncc1             18.4
12  O=C(NCc1ccco1)[C@@H]1CCO[C@@H]2CCN(c3ccncn3)C[C@H]21             2.67
13  COCC(c1cccc(C(F)(F)F)c1)N(C)C(=O)c1cc(C)n[nH]1 (centres undefined)             18.4
14  Cc1nc(C)n(CC2CCCN2CCCc2ccccc2)n1 (centres undefined)              -11
15   COc1ncccc1C(=O)N1CCC(c2nnc(C3CC3)o2)CC1             10.4
16  Cn1cc2c(n1)C(COCC1CC1)CN(Cc1ccccn1)C2 (centres undefined)             -2.7
17  CNc1cncc(C2CCCN2C(=O)c2ccc3oc(=O)n(C)c3c2)n1 (centres undefined)             14.9
18  CC(CNC(=O)Nc1cn[nH]c1)N1CCc2ccccc2C1 (centres undefined)             15.6
19            CNc1nc(CNC(=O)Nc2cccc(F)c2)cs1             8.11
20  O=C(NCc1cccnc1-n1cccn1)C1CC(=O)N(CC2CC2)C1 (centres undefined)             -2.6
21  Cc1nc(C)n(CC2CCCN(c3ncnc4ccsc34)C2)n1 (centres undefined)             10.8
22  CCc1nnc2n1CCN(C(=O)C(C)COCc1ccccc1)C2 (centres undefined)             10.5
23  O=C(c1cccnc1)N1CCCC2(CCN(c3ccsc3)C2=O)C1 (centres undefined)             10.4

====

system: Trypanosoma cruzi; assay: Trypanosoma cruzi phosphomannomutase and mannose-1-phosphate guanylyltransferase assay; format: functional; set-up: scale not given: direction of the effect not stated beside the values; conditions: 10 µM
Overview of recorded Percent Effect for various molecules
experimental endpoint: Percent Effect (%)

In [3]: df
Out[3]:
                                    molecule   target_or_system  experimental_endpoint  numeric_readout
 0     Cc1nc(N2CCOCC2)nc2c1CCN(Cc1cccnc1)CC2  Trypanosoma cruzi         Percent Effect            -3.28
 1  CC(=O)N(Cc1ncc(C(C)C)o1)C1CCN(CCn2cccn2)C1 (stereo unspecified)  Trypanosoma cruzi         Percent Effect             2.69
 2  O=C(C1CCS(=O)(=O)C1)N1CCN(c2cnccn2)CC1 (stereo unspecified)  Trypanosoma cruzi         Percent Effect            -7.52
 3  N#Cc1ccccc1C(=O)N1CCC2(CC(=O)NC2=O)C1 (stereo unspecified)  Trypanosoma cruzi         Percent Effect            -5.21
 4  CN(Cc1ccsc1)C(=O)CS(=O)(=O)Cc1ccc(Cl)c(Cl)c1  Trypanosoma cruzi         Percent Effect             7.15
 5  COc1ccc(CC(=O)N2CCCC2Cn2cccn2)cc1F (stereo unspecified)  Trypanosoma cruzi         Percent Effect            -2.52
 6  O=C(CC1CN(Cc2ccccc2)CCO1)Nc1ccccc1F (stereo unspecified)  Trypanosoma cruzi         Percent Effect             2.15
 7   Cc1occc1C(=O)N1CCC2(CCN(Cc3nccs3)C2)CC1  Trypanosoma cruzi         Percent Effect             3.83
 8  Cc1ccc(CN2CC[C@H]3[C@@H]2CCC(=O)N3CCN2CCCC2)s1  Trypanosoma cruzi         Percent Effect            -8.27
 9  CN1N=C(C(=O)N2CCCC(CCc3c(F)cccc3F)C2)CCC1=O (stereo unspecified)  Trypanosoma cruzi         Percent Effect             1.74
10   Cc1cc(NC(=O)N2CCN(c3nc(C)c(C)s3)CC2)no1  Trypanosoma cruzi         Percent Effect             -4.3

Data provenance: ChEMBL document CHEMBL3988442
